Taken from patent US20240132431A1.

- TARGET: Bcl-2 protein (Recombinant Human Bcl-2 Protein) (Homo sapiens)
- Construct: purchased Novus NBP2-34889
- ASSAY_SUMMARY: Binding evaluation of mixture library compounds to Bcl-2 using AS-MS (affinity selection mass spectrometry)
- SETTINGS: AS-MS on the mixture of 1200 library compounds; ASMS Ratio(%)=(A−C)/B×100; replicate n = 2
Reported ASMS ratio (%) n = 2 values follow for various compounds
RESULT_TYPE: ASMS ratio (%) n = 2

> print(dat)
                                chem.smiles  quantitative.result
1  CCOc1cncc(C#Cc2ccccc2CN2CCN(c3ccc(C(=O)N(C)CC45CC6CC(CC(C6)C4)C5)nn3)CC2)c1                  2.4
2  CCOc1cccc(-c2ccccc2CCC(=O)N2CCN(c3ccc(C(=O)N(C)CC45CC6CC(CC(C6)C4)C5)nn3)CC2)c1                  2.0
3  CCOc1cccc(-c2cc(C(=O)N3CCN(c4ccc(C(=O)Nc5ccc(OC)cc5)cc4)CC3)cc(C(C)(C)C)c2)c1                 −1.7
4  CCOc1cccc(-c2ccccc2CCC(=O)N2CCN(c3ccc(C(=O)N(CC)CC)nn3)CC2)c1                 −0.9
5  CCOc1cncc(-c2ccc(C(=O)N3CCN(c4ccc(C(=O)N(C)CC56CC7CC(CC(C7)C5)C6)nn4)CC3)cc2F)c1                  0.0
6  CCOc1cncc(-c2ccc(C(=O)N3CCN(c4ccc(C(=O)N(CC)CC)nn4)CC3)cc2C)c1                  0.4
7  CCOc1cccc(-c2ccc(CN3CCN(c4ccc(C(=O)Nc5ccc(OC)cc5)nn4)CC3)c(CC)c2)c1                  0.8

###

- TARGET: Bcl-2 protein (Recombinant Human Bcl-2 Protein) (Homo sapiens, UniProt P10415)
- Construct: purchased Novus NBP2-34889
- Sequence (P10415 whole entry): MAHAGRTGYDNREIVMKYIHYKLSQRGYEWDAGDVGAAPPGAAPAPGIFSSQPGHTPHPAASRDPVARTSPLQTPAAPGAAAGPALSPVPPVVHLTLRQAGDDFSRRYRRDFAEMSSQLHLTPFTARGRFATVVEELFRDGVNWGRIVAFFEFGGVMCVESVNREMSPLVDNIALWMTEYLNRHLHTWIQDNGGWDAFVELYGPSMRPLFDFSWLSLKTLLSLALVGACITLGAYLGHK
- ASSAY_SUMMARY: Binding evaluation of mixture library compounds to Bcl-2 using AS-MS (affinity selection mass spectrometry)
- SETTINGS: AS-MS, mixture library, Bcl-2; replicate n = 1; ASMS Ratio(%)=(A−C)/B×100
RESULT_TYPE: ASMS ratio (%) n = 1

> print(dat)
                                chem.smiles                                    target  result
1  CCOc1cncc(C#Cc2ccccc2C(=O)N2CCN(c3ccc(C(=O)NS(C)(=O)=O)cc3)CC2)c1  Bcl-2 protein (Recombinant Human Bcl-2 Protein) (Homo sapiens, UniProt P10415)    0.0%
2  CCOc1cccc(-c2cc(CN3CCN(c4ccc(C(=O)NS(=O)(=O)CC56CC7CC(CC(C7)C5)C6)cc4)CC3)cc(C(F)(F)F)c2)c1  Bcl-2 protein (Recombinant Human Bcl-2 Protein) (Homo sapiens, UniProt P10415)    1.7%
3  CCOc1cncc(-c2csc(C(=O)N3CCN(c4ccc(C(=O)NS(C)(=O)=O)cc4)CC3)c2)c1  Bcl-2 protein (Recombinant Human Bcl-2 Protein) (Homo sapiens, UniProt P10415)    0.0%
4  CCOc1cccc(C#Cc2cc(C(=O)N3CCN(c4ccc(C(=O)NS(=O)(=O)CC56CC7CC(CC(C7)C5)C6)cc4)CC3)cc(C(F)(F)F)c2)c1  Bcl-2 protein (Recombinant Human Bcl-2 Protein) (Homo sapiens, UniProt P10415)    0.0%
5  CCOc1cccc(-c2ccc(CN3CCN(c4ccc(C(=O)NS(=O)(=O)CC56CC7CC(CC(C7)C5)C6)cc4)CC3)c(OC)c2)c1  Bcl-2 protein (Recombinant Human Bcl-2 Protein) (Homo sapiens, UniProt P10415)    0.0%
6  CCOc1cncc(-c2cc(CN3CCN(c4ccc(C(=O)NS(=O)(=O)CC56CC7CC(CC(C7)C5)C6)cc4)CC3)cc(OC(F)(F)F)c2)c1  Bcl-2 protein (Recombinant Human Bcl-2 Protein) (Homo sapiens, UniProt P10415)    0.0%
